B1: glmS ribozyme (parent)
chain: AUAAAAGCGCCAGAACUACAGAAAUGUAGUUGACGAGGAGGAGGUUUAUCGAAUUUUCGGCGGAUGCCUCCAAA

Variants of: B1
Assay: kcat; higher = faster cleavage; RNA array
Details: with glucosamine-6-phosphate
Fewer inactive variants are shown than the library holds.
endpoint: log10 of kcat (log10 of the value in s⁻¹)

{"variant": "G40A C71U", "obs.value": -1.10}
{"variant": "G41C U47G", "obs.value": -3.15}
{"variant": "G32U G40A", "obs.value": -3.46}
{"variant": "U30C C71U", "obs.value": -3.47}
{"variant": "U49G U65A", "obs.value": -4.65}
{"variant": "A12U C50U C67G", "obs.value": -4.36}
{"variant": "G32U U69C", "obs.value": -3.28}
{"variant": "A52G C71A", "obs.value": -3.23}
{"variant": "A15G U65A C71A", "obs.value": -3.03}
{"variant": "U46G A53U", "obs.value": -2.22}
{"variant": "A14U G32U", "obs.value": -3.06}
{"variant": "C16U C70A", "obs.value": -3.69}
{"variant": "U47G U54A", "obs.value": -2.01}
{"variant": "C16G G41U", "obs.value": -3.86}
{"variant": "A15C U31C", "obs.value": -2.55}
{"variant": "U30C C58G", "obs.value": -4.70}
{"variant": "U46G G66A C70G", "obs.value": -3.07}
{"variant": "A12G G13C", "obs.value": -4.58}
{"variant": "G32A C71G", "obs.value": -3.65}
{"variant": "A15C C70A", "obs.value": -4.21}
{"variant": "G40U U49G C71G", "obs.value": -3.94}
{"variant": "A15G C34G C68A", "obs.value": -4.61}
{"variant": "C11U G13U", "obs.value": -4.21}
{"variant": "C11A G44U G59U", "obs.value": -3.62}
{"variant": "U47G C50A C67U", "obs.value": -4.38}
{"variant": "G62U C68U", "obs.value": -4.91}
{"variant": "G40U U69C", "obs.value": -4.08}
{"variant": "G32A C58G", "obs.value": -3.68}
{"variant": "A14G C67G", "obs.value": -2.44}
{"variant": "A53C C71G", "obs.value": -3.51}
{"variant": "U31C C70G", "obs.value": -4.22}
{"variant": "A12U A36U C68A", "obs.value": -4.93}
{"variant": "C16A A53C", "obs.value": -3.57}
{"variant": "G32C C68U", "obs.value": -4.90}
{"variant": "A14U U54A", "obs.value": -2.04}
{"variant": "C50G U55G", "obs.value": -4.41}
{"variant": "C61G C67G", "obs.value": -4.91}
{"variant": "G32A G38U G59A U65A C70G", "obs.value": -4.79}
{"variant": "C16A G32A", "obs.value": -2.92}
{"variant": "C11U G13C A52U C70U", "obs.value": -4.80}
